This section presents compounds with their documented pIC50 values.
tested on: HTT mRNA; assay: Gene panel canonical junction qPCR assay, HTT CJ mRNA decrease; type: cell-based, human; conditions: Homo sapiens, decrease in CJ mRNA levels, read-out: HTT IC50
pIC50: −log10 of the molar value.

compound: Cc1cn2cc(NC(=O)c3sc(C4CCNCC4)c(C#N)c3Cl)cc(F)c2n1
pIC50: 5.00 to 6.00

Asked: Return value of pIC50 for input Cc1cn2cc(NC(=O)c3sc([C@@H]4CCN[C@H](C)C4)cc3F)cc(F)c2n1 , no commentary.
Given back: 6.00 to 7.00

Asked: Supply measured pIC50 of Cc1cn2cc(NC(=O)c3sc(N4CCNC(C)C4)cc3F)ncc2n1 (centres unmarked) in your reply.
Given back: < 5.00

Asked: Supply pIC50 value. Item: Cc1cn2cc(NC(=O)c3sc(C4CCNCC4)c(C)c3F)cc(F)c2n1
Given back: 6.00 to 7.00

Asked: Specify pIC50 for Cc1cn2cc(NC(=O)c3sc(N4CCN(C)C(C)C4)cc3F)cc(F)c2n1 (centres unmarked) and stop.
Given back: < 5.00

Asked: Let me know recorded pIC50 for Cc1cn2nc(NC(=O)c3sc([C@@H]4CCN[C@H](C)C4)cc3F)cc(C)c2n1 , thanks.
Given back: 6.00 to 7.00

Asked: Name the recorded pIC50 of the item Cc1cn2cc(NC(=O)c3sc(N4CCNC(C)(C)C4)cc3F)cc(F)c2n1 in your answer.
Given back: < 5.00

Asked: Give recorded pIC50. Cc1cn2cc(NC(=O)c3sc(N4C[C@H]5CC[C@@H](C4)N5)cc3F)cc(F)c2n1
Given back: < 5.00

Asked: Specify measured pIC50 for CC1=NC2C(F)=CC(NC(=O)c3sc(C4CCNCC4)cc3F)=CC2S1 (centres unmarked) .
Given back: < 5.00

Asked: Output pIC50 of Cn1cc2ccc(NC(=O)c3sc(C4CCNCC4)cc3F)cc2n1
Given back: 6.00 to 7.00

Asked: Return pIC50 for the following compound: COc1cc(N2CCNCC2=O)sc1C(=O)Nc1cc(F)c2nc(C)cn2c1
Given back: < 5.00

Asked: Give the reported pIC50 for this compound. Cc1cn2nc(NC(=O)c3sc([C@H]4CCN[C@H](C)C4)cc3F)cc(C)c2n1
Given back: 6.00 to 7.00

Asked: Return pIC50 for the following compound: Cc1cn2nc(NC(=O)c3sc(N4CCNC(C)C4)cc3F)cc2c(C)n1 (centres unmarked)
Given back: < 5.00

Asked: Please indicate pIC50 recorded for CCN1CCC(c2cc(F)c(C(=O)Nc3cc(F)c4nc(C)cn4c3)s2)CC1
Given back: 6.00 to 7.00

src = patent US20240409536A1
